Data provenance: patent US5395757A

Test system: lacto-N-biosidase
Assay Summary: Substrate specificity of lacto-N-biosidase (hydrolysis of oligosaccharides, HPLC)
Type: biochemical, Streptomyces sp 142
Condition Notes: oligosaccharides labelled with 2-aminopyridine

Compound	hydrolysis by lacto-N-biosidase
CC(=O)N[C@H]1[C@H](O[C@@H]2[C@H](O)[C@@H](O)[C@H](O[C@@H]([C@H](O)[C@@H](O)CNc3ccccn3)[C@H](O)CO)O[C@@H]2CO)O[C@H](CO)[C@H](O)[C@@H]1O[C@@H]1O[C@H](CO)[C@H](O)[C@H](O)[C@H]1O [asialo GM1 tetrasaccharide]	did not hydrolyze
CC(=O)N[C@H]1[C@H](O[C@H]2[C@@H](O)[C@@H](CO)O[C@@H](O[C@H]3[C@H](O)[C@@H](O)C(O)O[C@@H]3CO)[C@@H]2O)O[C@H](CO)[C@@H](O)[C@@H]1O (stereo partly drawn) [lacto-N-triose]	did not hydrolyze
CC(=O)N[C@H]1[C@H](O[C@H]2[C@@H](O)[C@@H](CO)O[C@@H](O[C@@H]([C@H](O)[C@@H](O)CNc3ccccn3)[C@H](O)CO)[C@@H]2O)O[C@H](CO)[C@@H](O[C@@H]2O[C@H](CO)[C@H](O)[C@H](O)[C@H]2O)[C@@H]1O	did not hydrolyze
